assay: Thermo Scientific Hypersil GOLD aQ, 100 × 2.1 mm, 1.9 µm, 30 °C, 0.3 mL/min, estimated dead time 0.73 min; A: water + 0.01% formic acid + 4 mM ammonium formate; B: methanol + 0.01% formic acid + 4 mM ammonium formate; gradient (min/%B) 0/5 1/5 8/100 12/100; settings: stereoisomer not certain
Readout label: LC retention time (min)
API: value field is a number in min; no unit string.

Kindly note the recorded LC retention time for COP(=S)(NC(C)C)Oc1ccccc1C(=O)OC(C)C (stereo not drawn) , which is 8.98

// LC retention time value for `CCOP(=S)(OCC)SCCS(=O)(=O)CC` : 8.89

Noted for `CCNc1nc(NC(C)(C)C)nc(OC)n1` : its LC retention time reads 8.88

###

Consider the following compounds; for each one, report its LC retention time.
assay: Thermo Scientific Hypersil GOLD aQ, 100 × 2.1 mm, 1.9 µm, 30 °C, 0.3 mL/min, estimated dead time 0.73 min; A: water + 0.01% formic acid + 4 mM ammonium formate; B: methanol + 0.01% formic acid + 4 mM ammonium formate; gradient (min/%B) 0/5 1/5 8/100 12/100; settings: stereoisomer not certain
Field: numeric (min). Do not append units.

Lab note: COc1cc2c(c3oc(=O)c4c(c13)CCC4=O)C1CCOC1O2 (configuration not stated) gave LC retention time of 8.26

Lab book: LC retention time of `Cc1ccc2nc3sc(=O)sc3nc2c1` noted as 9.19

// field: LC retention time; key: `COC(=O)Nc1cccc(OC(=O)Nc2cccc(C)c2)c1` ; value = 9.23

Per the record, `CN(C)NC(=O)CCC(=O)O` has LC retention time of 1.58

// field: LC retention time; key: `Cc1nnc(-c2ccccc2)c(=O)n1N` ; value = 7.23

Reported LC retention time of `CSc1nnc(C(C)(C)C)c(=O)n1N` : 8.41

The compound `CCCSP(=O)(OCC)SCCC` showed LC retention time equal to 9.93

Sample CCOP(=S)(Oc1ccc([N+](=O)[O-])cc1)c1ccccc1 (configuration not stated) ; LC retention time observed: 9.71

For COc1cc2c(c3oc(=O)c4c(c13)CCOC4=O)C1C=COC1O2 (configuration not stated) the compound record lists LC retention time as 8

The compound identified as CCC(C)Nc1c([N+](=O)[O-])cc(C(C)(C)C)cc1[N+](=O)[O-] (configuration not stated) registered its LC retention time at 9.23

Note to self: LC retention time recorded for CCOP(=O)(NC(C)C)Oc1ccc(S(C)=O)c(C)c1 (configuration not stated) was 8.44

What the record says about `CCOc1ccc2c(c1)C(C)=CC(C)(C)N2` : LC retention time is 9.07

Looking up COc1cc2c(c3oc(=O)c4c(c13)CCC4=O)C1C=COC1O2 (configuration not stated) , I found its LC retention time recorded as 8.44

Per the record, `CC(C)(C)c1ccc(CCOc2ncnc3ccccc23)cc1` has LC retention time of 11.8

Reported LC retention time for `COc1cc(OC)nc(NC(=O)NS(=O)(=O)c2ncccc2C(=O)N(C)C)n1` was 8.01

Just so you know, measured LC retention time for `CCN(CC)c1nc(C)cc(OP(=S)(OC)OC)n1` came out at 10.3

Documented LC retention time of `c1ccc(Nc2ccccc2)cc1` : 6.3

Sample CNC(=O)C(C)SCCSP(=O)(OC)OC (configuration not stated) ; LC retention time observed: 7.11

Briefly, LC retention time measured for `CCCCc1c(C)nc(NCC)nc1OS(=O)(=O)N(C)C` : 9.87

For reference, reported LC retention time for CCOP(=O)(NC(C)C)Oc1ccc(SC)c(C)c1 (configuration not stated) stands at 9.99

LC retention time recorded for this compound, `CCOP(=S)(OCC)SCn1nnc2ccccc2c1=O` , is 9.92

Lab note: measured LC retention time of CCOC(=O)C(SP(=S)(OC)OC)c1ccccc1 (configuration not stated) was 10.1

Record `COCC(=O)N(c1c(C)cccc1C)N1CCOC1=O` , field LC retention time: 8.04

Record summary for CCOC1Oc2ccc(OS(C)(=O)=O)cc2C1(C)C (configuration not stated) : reported LC retention time = 9.42

Lookup result for `Cc1nc(N(C)C)nc(OC(=O)N(C)C)c1C` ; measured LC retention time: 7.91

The reported LC retention time of the compound `CNc1nc(NC(C)C)nc(SC)n1` was 8.62

Briefly, LC retention time measured for CC(COc1ccc(Oc2ccccc2)cc1)Oc1ccccn1 (configuration not stated) : 10.9

Item: `CON(C(=O)c1cc(C)oc1C)C1CCCCC1` | LC retention time: 10.2

Reported LC retention time ( `CC(C)OC(=O)Nc1ccccc1` ) = 8.61

Value of measured LC retention time for the entry `CNC(=O)Oc1cccc2ccccc12` : 8.61

According to the records, this compound CCCCC(C)C(OC(=O)CC(CC(=O)O)C(=O)O)C(CC(C)CCCCCCC(O)CC(O)C(C)N)OC(=O)CC(CC(=O)O)C(=O)O (configuration not stated) displays LC retention time of 7.46

// field: LC retention time; key: CC=C(C)C(=O)OC1CC(OC(C)=O)C2(C(=O)OC)COC3C2C12COC(O)(C(=O)OC)C2C(C)(C12OC1(C)C1CC2OC2OC=CC21O)C3O (configuration not stated) ; value = 8.67
